system: Trypanosoma cruzi; test: Antiparasitic activity against epimastigote form of Trypanosoma cruzi BM Lopez (TcIa) assessed as inhibition of parasite growth incubated for 96 hrs followed by incubation with resazurin for 4 to 6 hrs by resazurin dye based fluorescence analysis; type: functional, organism-based
READOUT LABEL: pIC50
Kindly note that pIC50 refers to -log10 of the concentration in mol/L and answer with the value alone.

Look over these answered cases.
MOL | EXPERIMENTAL VALUE
Cc1sc(-c2ccc(CCN(C)C)cc2)cc1C1=C(c2cc(-c3ccc(CCN(C)C)cc3)sc2C)CCC1 | 5.40
Cc1sc(-c2ccc(-c3cc[n+](C)cc3)cc2)cc1C1=C(c2cc(-c3ccc(-c4cc[n+](C)cc4)cc3)sc2C)CCC1 | 4.60
Cc1sc(-c2cccc3cc[n+](C)cc23)cc1C1=C(c2cc(-c3cccc4cc[n+](C)cc34)sc2C)CCC1.[I-].[I-] | 4.52
C[C@]12SC(c3ccc4cccnc4c3)=CC1=C1CCCC1=C1C=C(c3ccc4cccnc4c3)S[C@@]12C | 4.39

// below: pIC50 requested for another compound
Look up pIC50 for this compound: `Cc1sc(-c2cccc3c2ccc[n+]3C)cc1C1=C(c2cc(-c3cccc4c3ccc[n+]4C)sc2C)CCC1`
4.64

###

Below, each of the compounds is paired with its reported selectivity ratio value.
test: Selectivity index, ratio of IC50 for cytotoxicity against human MRC5 cells to IC50 for antiparasitic activity against epimastigote form of Trypanosoma cruzi Y (TcII); assay type: toxicity, cell-based; conditions: read-out: Ratio IC50

Recorded results for 8 compounds are shown here.
MOL | selectivity ratio
Cc1sc(-c2cccc3c2ccc[n+]3C)cc1C1=C(c2cc(-c3cccc4c3ccc[n+]4C)sc2C)CCC1 | < 1
C[C@]12SC(c3ccc4cccnc4c3)=CC1=C1CCCC1=C1C=C(c3ccc4cccnc4c3)S[C@@]12C | 3.9
C[C@]12SC(c3ccncc3)=CC1=C1CCCC1=C1C=C(c3ccncc3)S[C@@]12C | < 1
Cc1sc(-c2ccc(CN3CCCC3)cc2)cc1C1=C(c2cc(-c3ccc(CN4CCCC4)cc3)sc2C)CCC1 | 1.1
CN(C)CCc1ccc(C2=CC3=C4CCCC4=C4C=C(c5ccc(CCN(C)C)cc5)S[C@]4(C)[C@@]3(C)S2)cc1 | < 1
O=C(Cn1ccnc1[N+](=O)[O-])NCc1ccccc1 | 2.3
Cc1sc(-c2cc[n+](C)cc2)cc1C1=C(c2cc(-c3cc[n+](C)cc3)sc2C)CCC1 | < 1
CN(C)c1ccc(Nc2c3ccc(NC(=O)CCN4CCCC4)cc3nc3cc(NC(=O)CCN4CCCC4)ccc23)cc1 | < 1

# query: selectivity ratio of entry `NCCOc1cc(C(=O)Nc2cc(OCCN)c3ccccc3n2)nc(C(=O)Nc2cc(OCCN)c3ccccc3n2)c1`
< 1

// query selectivity ratio value for entry `Cc1sc(-c2cccc3cc[n+](C)cc23)cc1C1=C(c2cc(-c3cccc4cc[n+](C)cc34)sc2C)CCC1.[I-].[I-]`
3.1

Given the entry `Cc1sc(-c2ccc(CCN(C)C)cc2)cc1C1=C(c2cc(-c3ccc(CCN(C)C)cc3)sc2C)CCC1` , report its measured selectivity ratio.
< 1

Which selectivity ratio value belongs to `C[C@]12SC(c3ccc(-c4ccncc4)cc3)=CC1=C1CCCC1=C1C=C(c3ccc(-c4ccncc4)cc3)S[C@@]12C` ?
< 1

###

tested on: Trypanosoma cruzi; assay: Antiparasitic activity against epimastigote form of Trypanosoma cruzi BM Lopez (TcIa) assessed as inhibition of parasite growth incubated for 96 hrs followed by incubation with resazurin for 4 to 6 hrs by resazurin dye based fluorescence analysis; assay type: functional, organism-based
So basically, if IC50 comes in under 20 µM it's Fulfilled, and if it's 20 µM or more it's Not fulfilled.

Worked examples, 3 compounds total:
COMPOUND | CATEGORY LABEL
CN(C)c1ccc(Nc2c3ccc(NC(=O)CCN4CCCC4)cc3nc3cc(NC(=O)CCN4CCCC4)ccc23)cc1 | Not fulfilled
Cc1sc(-c2cc[n+](C)cc2)cc1C1=C(c2cc(-c3cc[n+](C)cc3)sc2C)CCC1 | Not fulfilled
C[C@]12SC(c3ccncc3)=CC1=C1CCCC1=C1C=C(c3ccncc3)S[C@@]12C | Not fulfilled

I'd appreciate it if you could check whether `C[C@]12SC(c3ccc(-c4ccncc4)cc3)=CC1=C1CCCC1=C1C=C(c3ccc(-c4ccncc4)cc3)S[C@@]12C` has IC50 smaller than 20 µM.
Not fulfilled

Consider O=C(Cn1ccnc1[N+](=O)[O-])NCc1ccccc1 [BENZNIDAZOLE] . Does its IC50 lie strictly below 20 µM?
Fulfilled

Problem: For the compound `Cc1sc(-c2ccc(CN3CCCC3)cc2)cc1C1=C(c2cc(-c3ccc(CN4CCCC4)cc3)sc2C)CCC1` , is IC50 under 20 µM?
Fulfilled

Does `Cc1sc(-c2ccc(N3CCNCC3)cc2)cc1C1=C(c2cc(-c3ccc(N4CCNCC4)cc3)sc2C)CCC1` have IC50 strictly under 20 µM?
Not fulfilled

Field: below-cutoff. Rule: recorded IC50 strictly less than 20 µM. Subject: `Cc1sc(-c2ccc(CC[N+](C)(C)C)cc2)cc1C1=C(c2cc(-c3ccc(CC[N+](C)(C)C)cc3)sc2C)CCC1`
Fulfilled

###

test: Selectivity index, ratio of IC50 for cytotoxicity against human MRC5 cells to IC50 for antiparasitic activity against epimastigote form of Trypanosoma cruzi BM Lopez (TcIa); format: toxicity, cell-based; conditions: read-out: Ratio IC50
READOUT LABEL: selectivity ratio

MOL | selectivity ratio
C[C@]12SC(c3ccc(N4CCNCC4)cc3)=CC1=C1CCCC1=C1C=C(c3ccc(N4CCNCC4)cc3)S[C@@]12C | < 1
Cc1sc(-c2ccc(N3CCNCC3)cc2)cc1C1=C(c2cc(-c3ccc(N4CCNCC4)cc3)sc2C)CCC1 | < 1
Cc1sc(-c2ccc(CC[N+](C)(C)C)cc2)cc1C1=C(c2cc(-c3ccc(CC[N+](C)(C)C)cc3)sc2C)CCC1 | < 1

Endpoint output: selectivity ratio of `Cc1sc(-c2cc[n+](C)cc2)cc1C1=C(c2cc(-c3cc[n+](C)cc3)sc2C)CCC1` . Value?
< 1

Could you tell me which selectivity ratio is on file for `Cc1sc(-c2ccc(CN3CCCC3)cc2)cc1C1=C(c2cc(-c3ccc(CN4CCCC4)cc3)sc2C)CCC1` ?
1.6

Recorded selectivity ratio of `C[C@]12SC(c3ccc4cccnc4c3)=CC1=C1CCCC1=C1C=C(c3ccc4cccnc4c3)S[C@@]12C` , please.
2

Return reported selectivity ratio; argument: `Cc1sc(-c2cccc3cc[n+](C)cc23)cc1C1=C(c2cc(-c3cccc4cc[n+](C)cc34)sc2C)CCC1.[I-].[I-]`
2

So what does the record say about selectivity ratio for `NCCOc1cc(C(=O)Nc2cc(OCCN)c3ccccc3n2)nc(C(=O)Nc2cc(OCCN)c3ccccc3n2)c1` ?
< 1

Give the measured selectivity ratio of `C[C@]12SC(c3ccc(CN4CCCC4)cc3)=CC1=C1CCCC1=C1C=C(c3ccc(CN4CCCC4)cc3)S[C@@]12C` .
< 1

###

# selectivity ratio values compiled below
assay: Selectivity index, ratio of IC50 for cytotoxicity against human MRC5 cells to IC50 for antiparasitic activity against epimastigote form of Trypanosoma cruzi SOL (TcV); format: toxicity, cell-based; conditions: read-out: Ratio IC50

For orientation, consider the following solved cases.
MOL | selectivity ratio
Cc1sc(-c2ccc(N3CCNCC3)cc2)cc1C1=C(c2cc(-c3ccc(N4CCNCC4)cc3)sc2C)CCC1 | < 1
Cc1sc(-c2cccc3c2ccc[n+]3C)cc1C1=C(c2cc(-c3cccc4c3ccc[n+]4C)sc2C)CCC1 | 1

Fill in the blank: the reported selectivity ratio of `Cc1sc(-c2cc[n+](C)cc2)cc1C1=C(c2cc(-c3cc[n+](C)cc3)sc2C)CCC1` is ____.
< 1

Look at this molecule and give its reported selectivity ratio. `NCCOc1cc(C(=O)Nc2cc(OCCN)c3ccccc3n2)nc(C(=O)Nc2cc(OCCN)c3ccccc3n2)c1`
< 1

selectivity ratio lookup needed for `Cc1sc(-c2ccc(CCN(C)C)cc2)cc1C1=C(c2cc(-c3ccc(CCN(C)C)cc3)sc2C)CCC1` , thanks.
< 1

# query: selectivity ratio of entry `CN(C)c1ccc(Nc2c3ccc(NC(=O)CCN4CCCC4)cc3nc3cc(NC(=O)CCN4CCCC4)ccc23)cc1`
< 1

Please give the measured selectivity ratio for this molecule: `Cc1sc(-c2ccc(CN3CCCC3)cc2)cc1C1=C(c2cc(-c3ccc(CN4CCCC4)cc3)sc2C)CCC1`
< 1

Recorded selectivity ratio of `Cc1sc(-c2cccc3cc[n+](C)cc23)cc1C1=C(c2cc(-c3cccc4cc[n+](C)cc34)sc2C)CCC1.[I-].[I-]` , please.
2.9

I have this molecule here, `CN(C)CCc1ccc(C2=CC3=C4CCCC4=C4C=C(c5ccc(CCN(C)C)cc5)S[C@]4(C)[C@@]3(C)S2)cc1` , and I need its recorded selectivity ratio.
< 1

Tell me the measured selectivity ratio of `Cc1sc(-c2ccc(CC[N+](C)(C)C)cc2)cc1C1=C(c2cc(-c3ccc(CC[N+](C)(C)C)cc3)sc2C)CCC1` , please.
< 1
